Molecular target: KATP channels (Homo sapiens, UniProt O60706)
Construct: TE671 human medulloblastoma cells were obtained from ATCC; host or cells: TE671 human medulloblastoma cells
Sequence (O60706 1-1549 isoform O60706-2): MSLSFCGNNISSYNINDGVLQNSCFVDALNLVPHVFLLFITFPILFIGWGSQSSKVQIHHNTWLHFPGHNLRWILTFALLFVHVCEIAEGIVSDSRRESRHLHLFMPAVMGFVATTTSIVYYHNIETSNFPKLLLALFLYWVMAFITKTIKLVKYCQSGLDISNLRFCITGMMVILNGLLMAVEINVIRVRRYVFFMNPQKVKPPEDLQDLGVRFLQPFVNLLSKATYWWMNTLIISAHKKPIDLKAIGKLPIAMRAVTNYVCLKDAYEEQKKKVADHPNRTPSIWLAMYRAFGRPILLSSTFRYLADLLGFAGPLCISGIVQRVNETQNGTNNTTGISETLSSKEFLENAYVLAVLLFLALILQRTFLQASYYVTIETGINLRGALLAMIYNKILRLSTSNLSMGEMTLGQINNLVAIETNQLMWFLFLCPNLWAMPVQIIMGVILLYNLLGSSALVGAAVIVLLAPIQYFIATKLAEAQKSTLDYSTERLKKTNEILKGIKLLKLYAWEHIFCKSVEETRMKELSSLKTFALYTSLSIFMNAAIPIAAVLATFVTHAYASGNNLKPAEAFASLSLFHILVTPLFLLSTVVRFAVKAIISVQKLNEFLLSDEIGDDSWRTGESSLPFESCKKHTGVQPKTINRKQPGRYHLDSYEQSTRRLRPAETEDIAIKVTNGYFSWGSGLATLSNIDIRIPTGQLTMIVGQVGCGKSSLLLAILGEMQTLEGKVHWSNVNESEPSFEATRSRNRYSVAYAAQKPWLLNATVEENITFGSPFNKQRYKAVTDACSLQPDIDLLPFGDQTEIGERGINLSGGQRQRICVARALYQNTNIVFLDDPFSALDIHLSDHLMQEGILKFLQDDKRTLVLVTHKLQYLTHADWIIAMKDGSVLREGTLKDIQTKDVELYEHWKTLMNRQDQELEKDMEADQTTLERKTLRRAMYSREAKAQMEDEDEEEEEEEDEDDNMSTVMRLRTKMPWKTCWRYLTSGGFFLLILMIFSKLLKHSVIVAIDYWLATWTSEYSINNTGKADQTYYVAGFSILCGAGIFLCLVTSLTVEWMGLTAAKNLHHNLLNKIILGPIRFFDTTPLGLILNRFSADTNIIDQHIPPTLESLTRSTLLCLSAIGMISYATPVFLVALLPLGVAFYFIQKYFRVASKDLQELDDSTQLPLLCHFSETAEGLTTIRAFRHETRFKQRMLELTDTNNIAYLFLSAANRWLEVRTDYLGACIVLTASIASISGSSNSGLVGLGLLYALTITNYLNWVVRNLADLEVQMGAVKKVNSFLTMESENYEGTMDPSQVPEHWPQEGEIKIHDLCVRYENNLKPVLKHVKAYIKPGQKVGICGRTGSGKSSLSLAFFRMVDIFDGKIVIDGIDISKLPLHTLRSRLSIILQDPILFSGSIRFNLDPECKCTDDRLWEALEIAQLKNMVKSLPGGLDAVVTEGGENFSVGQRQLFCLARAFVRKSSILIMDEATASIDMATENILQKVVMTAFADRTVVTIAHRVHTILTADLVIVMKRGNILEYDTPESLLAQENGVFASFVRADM
Sequence (Q14654 whole entry partner): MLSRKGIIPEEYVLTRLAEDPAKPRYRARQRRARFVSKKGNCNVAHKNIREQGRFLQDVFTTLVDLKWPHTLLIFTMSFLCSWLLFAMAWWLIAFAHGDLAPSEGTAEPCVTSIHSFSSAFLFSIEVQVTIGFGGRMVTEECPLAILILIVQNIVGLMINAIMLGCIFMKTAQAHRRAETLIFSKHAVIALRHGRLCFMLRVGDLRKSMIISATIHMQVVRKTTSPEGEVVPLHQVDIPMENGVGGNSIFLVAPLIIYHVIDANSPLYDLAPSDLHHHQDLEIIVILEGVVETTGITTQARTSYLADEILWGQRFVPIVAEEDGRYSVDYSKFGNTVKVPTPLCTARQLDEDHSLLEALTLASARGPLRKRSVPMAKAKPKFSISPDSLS
Test: Potassium Channel Assay (FLIPR membrane potential, KATP channel opening)
Format: cell-based
Conditions: TE671 human medulloblastoma cells, Membrane Potential Assay Dye, room temperature, test concentration not given
# reported % Stimulation; entries follow
I only need the number, in %, no unit after it.

Reference set (5 entries):
CCOC(=O)c1cnc2cc(C(F)(F)F)ccc2c1-c1cccc(C(C)=O)c1 [Compound 7]    2
COc1ccc(C=O)cc1-c1ccncc1C=O [Compound 53]    30
CCOC(=O)c1cnc2cc(C(F)(F)F)ccc2c1-c1ccc(C)c(C)c1 [Compound 13]    0
COc1ccc(C(O)c2cnccc2-c2cccc(C#N)c2)cc1 (stereo not drawn) [Compound 30]    7
CCOC(=O)c1cnc2cc(C(F)(F)F)ccc2c1-c1cccc(CO)c1 [Compound 12]    20

Switching to the query record.
Look at this molecule and give its reported % Stimulation. CCOC(=O)c1cnc2cc(C(F)(F)F)ccc2c1-c1cccc(C=O)c1 [Compound 11]
2
